system: M14 melanoma; assay: NCI tumour cell line growth inhibition, 48 h
I'd be grateful if you could share measured TGI for these entries.

Quick one: TGI of N[C@H]1CCN(c2c(F)cc3c(=O)c(C(=O)O)cn4c3c2Oc2cc3c(ccc5ccccc53)cc2-4)C1 ?
> 100 µM

Quick one: TGI of CCOP(=O)(OCC)C1CC(O)CN1OC(=O)C(C)(C)C (stereo unspecified) ?
> 100 µM

Quick one: TGI of COc1ccc(-c2c(C#N)c(-c3ccc(C)cc3)n(NS(=O)(=O)c3ccccc3)c(=O)c2C#N)cc1 ?
> 100 µM

Quick one: TGI of O=C(O)C(CSC(c1ccccc1)(c1ccccc1)c1ccccc1)N=Cc1cccs1 (stereo unspecified) ?
5.11 µM

Quick one: TGI of C=C1C(=O)O[C@@H]2C(=O)[C@@H](C)[C@@H]3C=CC(=O)[C@@]3(C)[C@@H](OC(=O)/C(C)=C\C)[C@H]12 ?
8.2 µM

Quick one: TGI of CCCCOC(=O)C1CN2C=CC=NC2=NC1(C(F)(F)F)C(F)(F)F (stereo unspecified) ?
> 100 µM

Quick one: TGI of COc1cc(/C=C2\[C@H]3c4c(c(OC)c(C)c(OC)c4OC)C[C@@H](C(=O)N2Cc2ccccc2)N3C(=O)OC(C)C)c(OC)c(C)c1OC ?
> 100 µM

Quick one: TGI of CCOC(=O)C(Cc1c2ccccc2cc2ccccc12)(NC(C)=O)C(=O)OCC ?
> 100 µM

Quick one: TGI of Cc1n[nH]c(=S)n1/N=C/c1ccc(F)c(Oc2ccccc2)c1 ?
> 100 µM

Quick one: TGI of CN1C2CCC1C(C(O)c1ccccc1[N+](=O)[O-])C(=O)C2 (stereo unspecified) ?
> 100 µM

Quick one: TGI of Cc1cc(N2CCCCCC2)nc(NC2CCCC(Nc3ccnc4cc(Cl)ccc34)C2)n1 (stereo unspecified) ?
2.74 µM
